Source of measurements: patent US6265423A

Documented activity at 0.01 µM across a set of compounds
- Test system: A-427 human pulmonary cancer cells
- test_description: MTT test, proliferation of A-427
- condition: Homo sapiens, A-427, 72 h, read-out: level of proliferation
Report the figure in % without appending any unit label.

Here is how some compounds turned out for activity at 0.01 µM.
| compound | units_label | activity at 0.01 µM |
| --- | --- | --- |
| C/C(=C/c1cc2c(cc1C)C(C)(C)CCC2(C)C)c1ccc(C(=O)O)cc1 | % | 103 |
| C/C(=C/c1ccc2c(c1)C(C)(C)CCS2)c1ccc(C(=O)O)cc1 | % | 83 |
| C/C(=C\c1ccc2c(c1)C(C)(C)CCS2(=O)=O)c1ccc(-c2nnn[nH]2)cc1 | % | 88.5 |
| C/C(=C\c1ccc(C(=O)O)cc1)c1ccc2c(c1)C(C)(C)CCC2(C)C [TTNPB, reference compound] | % | 78.9 |
| Cc1cc2c(cc1/C=C(\c1ccc(-c3nnn[nH]3)cc1)C(F)(F)F)C(C)(C)CCC2(C)C | % | 88.1 |
| C/C(=C/c1ccc2c(c1)C(C)(C)CCC2(C)C)c1ccc(C(=O)O)cn1 | % | 106 |
| C/C(=C\c1cc2c(cc1C)C(C)(C)CCC2(C)C)c1ccc(C(=O)O)cc1 | % | 69.7 |

Summary for this compound, CC1=C(/C=C/C(C)=C/C=C/C(C)=C\C(=O)O)C(C)(C)CCC1 [CB81808, 13-cis retinoic acid, reference compound] : activity at 0.01 µM is 100
